testSystem: segments of rabbit duodenum (Oryctolagus cuniculus, UniProt G1T803)
Sequence (G1T803 1-400): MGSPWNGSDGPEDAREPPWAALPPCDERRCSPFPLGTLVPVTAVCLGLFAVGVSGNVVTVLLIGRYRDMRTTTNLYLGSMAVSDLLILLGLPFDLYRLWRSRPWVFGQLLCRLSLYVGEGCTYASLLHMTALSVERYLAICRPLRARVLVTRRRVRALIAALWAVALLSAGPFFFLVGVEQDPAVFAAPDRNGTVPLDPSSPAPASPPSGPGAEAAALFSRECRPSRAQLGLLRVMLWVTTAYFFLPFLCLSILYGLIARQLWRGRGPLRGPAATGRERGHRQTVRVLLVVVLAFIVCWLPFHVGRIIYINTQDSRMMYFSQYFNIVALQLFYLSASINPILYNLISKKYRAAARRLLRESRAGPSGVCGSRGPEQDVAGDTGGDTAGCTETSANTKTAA
assayText: Rabbit duodenal smooth muscle strip tissue bath assay (contractile response)
Format: cell-based
testContext: contractility; negative logarithm of dose giving 50% of maximal response to motilin; compounds tested 10^-11 to 10^-4 M
Where a SMILES comes first, the peptide text is derived from it. [ ]: non-standard residue; d: D form. Cha = N[C@@H](CC1CCCCC1)C(=O)O
Quick reference: pEC50 of the listed items.
parameterMeasured: pEC50

* CC[C@H](C)[C@H](NC(=O)[C@H](Cc1ccccc1)NC(=O)[C@@H](NC(=O)[C@@H](N)Cc1ccccc1)C(C)C)C(=O)N[C@@H](Cc1ccccc1)C(=O)N[C@H](C(=O)N[C@@H](Cc1ccc(O)cc1)C(=O)NCC(=O)N[C@@H](CCC(=O)O)C(=O)N[C@@H](CC(C)C)C(=O)N[C@@H](CCC(N)=O)C(=O)N[C@H](CCCNC(=N)N)C(=O)N[C@@H](CC(C)C)C(=O)N[C@@H](CCC(N)=O)C(=O)O)[C@@H](C)O [[Phe^3, D-Arg^12, Leu^13]pMOT(1-14)] (H-FVFIFTYGELQ[dR]LQ-OH) | < 4.5
* CC[C@H](C)[C@H](NC(=O)[C@H](CC1CCCCC1)NC(=O)[C@@H](NC(=O)[C@@H](N)Cc1ccccc1)C(C)C)C(=O)N[C@@H](Cc1ccccc1)C(=O)N[C@H](C(=O)N[C@@H](Cc1ccc(O)cc1)C(=O)NCC(=O)N[C@@H](CCC(=O)O)C(=O)N[C@@H](CC(C)C)C(=O)N[C@@H](CCC(N)=O)C(=O)N[C@@H](CCCNC(=N)N)C(=O)N[C@@H](CC(C)C)C(=O)N[C@@H](CCC(N)=O)C(=O)O)[C@@H](C)O [[Cha^3, Leu^13]pMOT(1-14)] (H-FV[Cha]IFTYGELQRLQ-OH) | < 4.5

----------
testSystem: segments of rabbit duodenum (Oryctolagus cuniculus)
assayText: Rabbit duodenal smooth muscle strip tissue bath assay (contractile response)
Format: cell-based
testContext: contractility; negative logarithm of dose giving 50% of maximal response to motilin; compounds tested 10^-11 to 10^-4 M
Protocol: The experimental protocol consisted of an equilibration period of 1 hour: a challenge with 10^-4 M acetylcholine followed by a wash-out period; a cumulative dose-response curve of a compound with, at the end, the addition of 10^-7 M motilin; and finally 10^-4 M acetylcholine. If the final response to 10^-4 M acetylcholine differed by more than 5% from the initial response, the results were discarded.
Where a SMILES comes first, the peptide text is derived from it. [ ]: non-standard residue; d: D form.
parameterMeasured: pEC50

- CC[C@H](C)[C@H](NC(=O)[C@H](Cc1ccccc1)NC(=O)[C@@H](NC(=O)[C@H](N)Cc1ccccc1)C(C)C)C(=O)N[C@@H](Cc1ccccc1)C(=O)N[C@H](C(=O)N[C@@H](Cc1ccc(O)cc1)C(=O)NCC(=O)N[C@@H](CCC(=O)O)C(=O)N[C@@H](CC(C)C)C(=O)N[C@@H](CCC(N)=O)C(=O)N[C@@H](CCCNC(=N)N)C(=O)N[C@@H](CC(C)C)C(=O)N[C@@H](CCC(N)=O)C(=O)O)[C@@H](C)O [[D-Phe^1, Phe^3, Leu^13]pMOT(1-14)] (H-[dF]VFIFTYGELQRLQ-OH): < 4.5

Source listed as patent US5470830A.
